- assayed.target: recombinant human Flag-tagged PARP7 (amino acids 456-657) (Homo sapiens)
- Construct: recombinant human Flag-tagged PARP7 (amino acids 456-657)
- Sequence (Q7Z3E1 456-657): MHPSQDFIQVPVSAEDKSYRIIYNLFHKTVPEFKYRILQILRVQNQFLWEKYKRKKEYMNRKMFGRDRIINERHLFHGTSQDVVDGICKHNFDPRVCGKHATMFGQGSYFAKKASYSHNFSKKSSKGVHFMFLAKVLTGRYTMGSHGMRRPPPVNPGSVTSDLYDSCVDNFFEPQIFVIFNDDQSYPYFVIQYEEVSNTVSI
- assay.method.text: PARP7 biochemical DELFIA assay (auto-MARylation)
- settings: DELFIA readout, IC50 class
pIC50: −log10 of the molar value.
reported.metric: pIC50

Look over these answered cases.
{"columns": ["molecule", "pIC50"],
 "data": [
  ["N#Cc1ccc2nc(N3CCN(C(=O)CCOCCc4cccc5c(=O)[nH]ncc45)CC3)oc2c1", "≥ 7.00"],
  ["CC(COCCC(=O)N1CCN(c2ncc(C(F)F)cn2)CC1)n1nc(C(F)(F)F)c2c(=O)[nH]ncc21 (centres unmarked) [Compound 265]", "≥ 7.00"]
]}

## Task Entry CC(COCCC(=O)N1CCN(c2nnc(C(F)(F)F)[nH]2)CC1)n1nc(C(F)(F)F)c2c(=O)[nH]ncc21 (single isomer, unassigned) [Compound 393] has what pIC50?
## Result ≥ 7.00

## Task Repeat with Nc1nc(N2CCN(C(=O)CCOCCc3cccc4c(=O)[nH]ncc34)CC2)ncc1C(F)(F)F
## Result 6.00 to 7.00

## Task Repeat with O=C(CCOCCc1cccc2c(=O)[nH]ncc12)N1CCN(c2ccc(C(F)F)cn2)CC1
## Result ≥ 7.00

## Task Repeat with CC(COCCC(=O)N1CCN(c2ncc(C(F)(F)F)cn2)CC1)n1c(=O)n(C)c2c(=O)[nH]ncc21 (centres unmarked) [Compound 397]
## Result ≥ 7.00

## Task Repeat with CS(=O)(=O)c1ccc(N2CCN(C(=O)CCOCCc3cccc4c(=O)[nH]ncc34)CC2)nc1
## Result 6.00 to 7.00

## Task Repeat with O=C(CCOCCc1cccc2c(=O)[nH]ncc12)N1CCN(c2ncccn2)CC1
## Result 6.00 to 7.00

## Task Repeat with CNC(=O)c1cnc(N2CCN(C(=O)CCOCC(C)n3nc(C(F)(F)F)c4c(=O)[nH]ncc43)CC2)nc1 (single isomer, unassigned) [Compound 326]
## Result ≥ 7.00

## Task Repeat with CC(COCCC(=O)N1CCN(c2ccc(C#N)cn2)CC1)c1ccc(Cl)c2c(=O)[nH]ncc12 (centres unmarked) [Compound 417]
## Result ≥ 7.00

## Task Repeat with O=C(CCOCCc1cccc2c(=O)[nH]ncc12)N1CCC(Oc2ccccc2)CC1
## Result 6.00 to 7.00

## Task Repeat with CC(COCCC(=O)N1CCN(c2ccc(C#N)cn2)CC1)c1cccc2c(=O)[nH]ncc12 (centres unmarked) [Compound 70]
## Result 5.00 to 6.00

## Task Repeat with CC(CCOCC(=O)N1CCN(c2ccc(C#N)cn2)CC1)n1cc(C(F)(F)F)c2c(=O)[nH]ncc21 (single isomer, unassigned) [Compound 495]
## Result 6.00 to 7.00

## Task Repeat with O=C(CCOCCn1nc(C(F)(F)F)c2c(=O)[nH]ncc21)N1CCN(c2nnc(C(F)(F)F)s2)CC1
## Result ≥ 7.00

====

- assayed.target: recombinant human Flag-tagged PARP7 (amino acids 456-657) (Homo sapiens, UniProt Q7Z3E1)
- Construct: recombinant human Flag-tagged PARP7 (amino acids 456-657)
- assay.method.text: PARP7 biochemical DELFIA assay (auto-MARylation)
- settings: DELFIA readout, IC50 class
reported.metric: IC50

## Task Entry Cn1c(N2CCN(C(=O)CCOCCn3nc(C(F)(F)F)c4c(=O)[nH]ncc43)CC2)nc2ccccc21 has what IC50?
## Result ≤ 100 nM

## Task Repeat with CCc1cc2c(=O)[nH]ncc2n1CCOCCC(=O)N1CCN(c2ncc(C(F)(F)F)cn2)CC1
## Result 100 to 1000 nM

====

- assayed.target: recombinant human Flag-tagged PARP7 (amino acids 456-657) (Homo sapiens, UniProt Q7Z3E1)
- Construct: recombinant human Flag-tagged PARP7 (amino acids 456-657)
- Sequence (Q7Z3E1 456-657): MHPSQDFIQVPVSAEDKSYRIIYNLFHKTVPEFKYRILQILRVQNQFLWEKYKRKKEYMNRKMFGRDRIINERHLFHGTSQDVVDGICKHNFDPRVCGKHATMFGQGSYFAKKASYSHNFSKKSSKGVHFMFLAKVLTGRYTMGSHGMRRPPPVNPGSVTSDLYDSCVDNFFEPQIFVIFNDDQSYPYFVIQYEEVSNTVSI
- assay.method.text: PARP7 biochemical DELFIA assay (auto-MARylation)
- settings: DELFIA readout, IC50 class
- Protocol: A suitable assay may be conducted using 10-30 nM PARP7 (amino acids 456-657), 2 μM biotin-NAD assay solution in 20 mM HEPES (pH 7.5), 100 mM NaCl, 2 mM DTT, 0.1% BSA (w/v), 0.02% Tween (v/v) assay buffer. MARylation may take place for 2-3 h at room temperature and may be detected using a dissociation-enhanced lanthanide fluorescence immunoassay (DELFIA) readout. […] Following incubation for 30 min at room temperature, fluorescence was read on either an Envision or Pherastar FS (Ex337 nm, Em620 nm).
pIC50: −log10 of the molar value.
reported.metric: pIC50

Look over these answered cases.
{"columns": ["compound", "assayed.target", "pIC50"],
 "data": [
  ["N#Cc1ccc(N2CCN(C(=O)CCOCCn3c(C(F)(F)F)nc4c(=O)[nH]ncc43)CC2)nc1", "recombinant human Flag-tagged PARP7 (amino acids 456-657) (Homo sapiens, UniProt Q7Z3E1)", "5.00 to 6.00"],
  ["Cc1cn(CCOCCC(=O)N2CCN(c3ncc(C(F)(F)F)cn3)CC2)c2[nH]c(=O)[nH]c(=O)c12", "recombinant human Flag-tagged PARP7 (amino acids 456-657) (Homo sapiens, UniProt Q7Z3E1)", "≥ 7.00"],
  ["O=C(OCC1CC1Cn1nc(C(F)(F)F)c2c(=O)[nH]ncc21)N1CCN(c2ncc(C(F)(F)F)cn2)CC1 (stereo not shown) [Compound 492]", "recombinant human Flag-tagged PARP7 (amino acids 456-657) (Homo sapiens, UniProt Q7Z3E1)", "≥ 7.00"]
]}

## Task Lab request: please report pIC50 under test system recombinant human Flag-tagged PARP7 (amino acids 456-657) (Homo sapiens, UniProt Q7Z3E1) for O=C(CCOCCn1c(C(F)(F)F)cc2c(=O)[nH]ncc21)N1CCN(c2ncc(C(F)(F)F)cn2)CC1
## Result ≥ 7.00

## Task Repeat with CC(COCCC(=O)N1CCN(c2ncc(C(F)(F)F)cn2)CC1)c1cc(F)cc2c(=O)[nH]ncc12 (stereo not shown) [Compound 119]
## Result 5.00 to 6.00

## Task Repeat with CC(COCCC(=O)N1CCN(c2noc(C(F)(F)F)n2)CC1)n1nc(C(F)(F)F)c2c(=O)[nH]ncc21 (single isomer, unassigned) [Compound 344]
## Result ≥ 7.00

## Task Repeat with CC1CN(c2ncc(C(F)(F)F)cn2)CCN1C(=O)CCOCCn1ncc2c(=O)[nH]ncc21 (stereo not shown) [Compound 142]
## Result ≥ 7.00

## Task Repeat with CCC(OCCCC(=O)N1CCN(c2ncc(C(F)(F)F)cn2)CC1)c1cccc2c(=O)[nH]ncc12 (stereo not shown) [Compound 209]
## Result ≥ 7.00

====

- assayed.target: recombinant human Flag-tagged PARP7 (amino acids 456-657) (Homo sapiens, UniProt Q7Z3E1)
- Construct: recombinant human Flag-tagged PARP7 (amino acids 456-657)
- assay.method.text: PARP7 biochemical DELFIA assay (auto-MARylation)
- settings: DELFIA readout, IC50 class
pIC50: −log10 of the molar value.
reported.metric: pIC50

{"columns": ["compound", "pIC50"],
 "data": [
  ["Cc1nn(C(C)COCCC(=O)N2CCN(c3ncc(C(F)(F)F)cn3)CC2)c2cn[nH]c(=O)c12 (stereo not shown) [Compound 246]", "≥ 7.00"],
  ["O=C(CCOCCn1nc(C(F)(F)F)c2c(=O)[nH]ncc21)N1CCN(c2nc3ccc(F)cc3o2)CC1", "≥ 7.00"],
  ["CC(COCCC(=O)N1CCN(c2ccc(C#N)cn2)CC1)n1cc(C(F)(F)F)c2c(=O)[nH]ncc21 (single isomer, unassigned) [Compound 431]", "≥ 7.00"]
]}

Shift focus to the following entry.
## Task Lab request: please report pIC50 under test system recombinant human Flag-tagged PARP7 (amino acids 456-657) (Homo sapiens, UniProt Q7Z3E1) for CC(COCCC(=O)N1CCN(c2ncc(C(F)(F)F)cn2)CC1)N1CCCc2c1cn[nH]c2=O (stereo not shown)
## Result ≥ 7.00

The measurements presented in this section are drawn from patent US20240217968A1.
